- test details: Sweetness potency at 2% sucrose solution
observed property: Sweetness potency
Number only, please.

Query: Sweetness potency for N#Cc1ccc(N/C(=N\CC(=O)O)NCC2CCCCC2)cc1 ?
Reply: 35000

Query: What about this molecule? N#Cc1ccc(N/C(=N\CC(=O)O)NC(c2ccccc2)c2ccccc2)cc1
Reply: 200000

----------
- test details: Sweetness potency at 2% sucrose solution
As shown below, each of these compounds has a reported Sweetness potency value.
Number only, please.

Query: Sweetness potency for C[C@H](/N=C(/NCC(=O)O)Nc1ccc(C#N)cc1)c1ccccc1 ?
Reply: 28000

Query: What about this compound? N/C(=N\C1CCCCCCC1)NCC(=O)O
Reply: 200

Query: What about this compound? N#Cc1ccc(N/C(=N/CC(=O)O)NC2CCCCCCC2)cc1
Reply: 170000
